Measured inhibition at 1 µM, listed per entry.
# system.under.test: ABHD6 (Mus musculus, UniProt Q8R2Y0)
# Construct: Proteomes (mouse brain membrane fraction or cell lysates); from tissue; host or cells: mouse brain membrane fraction (or cell lysates, not specified)
# Sequence (Q8R2Y0 1-336): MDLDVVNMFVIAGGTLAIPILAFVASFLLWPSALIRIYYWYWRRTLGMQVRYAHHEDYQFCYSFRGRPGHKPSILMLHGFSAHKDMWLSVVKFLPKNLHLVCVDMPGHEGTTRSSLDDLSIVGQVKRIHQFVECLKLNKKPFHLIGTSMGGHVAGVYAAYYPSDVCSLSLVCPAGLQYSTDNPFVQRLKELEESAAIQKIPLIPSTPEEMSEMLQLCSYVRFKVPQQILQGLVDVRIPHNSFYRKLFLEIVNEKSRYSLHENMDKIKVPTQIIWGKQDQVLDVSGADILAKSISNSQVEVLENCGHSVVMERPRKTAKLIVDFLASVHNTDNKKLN
# method.notes: In vitro competitive activity-based protein profiling (gel-based, FP-Rh or HT-01 probe)
# Format: biochemical
# condition.parameters: 1 μM inhibitor; read-out: % Inhibition at 1 μM, C = ABHD6

Example compounds with recorded inhibition at 1 µM:
O=C(N1CCCC1)n1cc(-c2ccc(-c3ccccc3)cc2)cn1 [Example 106] :: 25 to 75%
O=C(c1cnn(C(=O)N2CCN(Cc3cncnc3)CC2)c1)N1CCCCC1 [Example 75] :: < 25%

Entry under test: O=C(N1CCN(Cc2ccc(-c3ccccc3)cc2Cl)CC1)n1cc(Cl)cn1 [Example 139] . Its inhibition at 1 µM was > 75%

Entry under test: O=C(N1CCN(Cc2ccc(C(F)(F)F)cc2)CC1)n1cc(Cl)cn1 [Example 213] . Its inhibition at 1 µM was > 75%

Entry under test: COc1ccc(N2CCN(C(=O)n3cc(C(F)(F)F)cn3)CC2)cc1 [Example 235] . Its inhibition at 1 µM was > 75%

Entry under test: O=C(N1CCN(Cc2ccc(-c3ccccc3)cc2)CC1)n1cccn1 [Example 22] . Its inhibition at 1 µM was < 25%

Entry under test: COC(=O)c1cnn(C(=O)N2CCN(Cc3ccc4ccccc4c3)CC2)c1 [Example 15] . Its inhibition at 1 µM was > 75%

Hey, just so you know, these numbers are from patent US10093630B2.
